experimentSummary: Cytotoxicity against human MT4 cells assessed as reduction in cell viability after 72 hrs by MTT assay
Type: toxicity, cell-based
Rule: measured CC50 at 72 h below 300 µM gets Fulfilled; anything equal to or greater than 300 µM gets Not fulfilled.

These solved cases illustrate the format of a correct answer.
smilesRepr	answerLabel
CCCCN(Cc1ccc(F)cc1)C(=O)c1ncccc1O	Not fulfilled
O=c1oc2cccnc2c(=O)n1Cc1ccc(F)cc1	Not fulfilled
O=c1oc2cccnc2c(=O)n1Cc1cccs1	Not fulfilled
CC(C)CCN(Cc1ccc(F)cc1)C(=O)c1ncccc1O	Fulfilled
C=C(C)CN(Cc1ccc(F)cc1)C(=O)c1ncccc1O	Fulfilled

Q: # check: CC50 at 72 h < 300 µM for CC(C)CN(Cc1ccc(F)cc1)C(=O)c1ncccc1O
Result: Fulfilled

* * *

Field: IC50. Provide a value for each of the compounds that follow.
experimentSummary: Inhibition of HIV1 His6-tagged integrase/FLAG-tagged LEDGF/p75 protein-protein interaction expressed in Escherichia coli BL21(DE3) preincubated with integrase for 30 mins followed by LEDGF/p75 addition measured after 60 mins by AlphaScreen assay
Answers are plain numbers, in µM.

Answered cases to consult:
smilesRepr	IC50 [µM]
COc1cc(CNC(=O)c2ncccc2O)cc(OC)c1OC	2.5
O=C(NCc1ccco1)c1ncccc1O	2.4
O=C(Nc1ccc(F)cc1)c1ncccc1O	8
O=C(NCc1ccc(F)cc1)c1ncccc1O	8.6
Nc1cccc(C(=O)NCc2ccco2)c1O	51

Items follow; give IC50 for each.
1. CCCCN(Cc1ccc(F)cc1)C(=O)c1ncccc1O
2. O=C(NCc1ccc2[nH]ccc2c1)c1ncccc1O
3. Nc1ccc(CNC(=O)c2ncccc2O)cc1
4. O=C(NCc1ccc(F)c(Cl)c1)c1ncccc1O

Result:
1. 12
2. 4.6
3. 1.7
4. 4.2

* * *

experimentSummary: Therapeutic Index, ratio of CC50 for human MT4 cells to EC50 for HIV1 3B infected in human MT4 cells
Assay type: cell-based
statedConditions: read-out: Ratio CC50/EC50
Can you tell me selectivity ratio for the items I'm about to list?
One number for each entry.

List the reported selectivity ratio of each molecule below.
1. CC(C)CCN(Cc1ccc(F)cc1)C(=O)c1ncccc1O
2. O=c1oc2cccnc2c(=O)n1Cc1ccc(F)cc1
3. O=c1oc2cccnc2c(=O)n1Cc1cccs1

Result:
1. 3.9
2. 4.3
3. 5.2

* * *

experimentSummary: Inhibition of HIV1 His6-tagged integrase/FLAG-tagged LEDGF/p75 protein-protein interaction expressed in Escherichia coli BL21(DE3) preincubated with integrase for 30 mins followed by LEDGF/p75 addition measured after 60 mins by AlphaScreen assay
What IC50 was measured for each of the following?

Solved cases below.
smilesRepr	IC50
O=C(NCc1ccco1)c1cccnc1O	> 100 µM
CC(C)CN(Cc1ccc(F)cc1)C(=O)c1ncccc1O	> 20 µM
O=c1oc2cccnc2c(=O)n1Cc1ccc(F)cc1	> 20 µM

Look up IC50 for the entries below, preserving their order.
1. O=C(NCc1ccc(F)cc1)c1cccc(O)n1
2. O=c1oc2cccnc2c(=O)n1Cc1cccs1
3. O=C(NCc1ccc(F)cc1)c1cc(O)ccn1
4. O=C(NCc1cccc2ccccc12)c1ncccc1O
5. O=C(NCc1ccc(C(F)(F)F)cc1)c1ncccc1O
6. O=C(NCc1ccc(F)cc1)c1ncccc1F

Result:
["> 20 µM", "> 20 µM", "> 20 µM", "> 20 µM", "> 20 µM", "> 20 µM"]

* * *

experimentSummary: Inhibition of HIV1 His6-tagged integrase/FLAG-tagged LEDGF/p75 protein-protein interaction expressed in Escherichia coli BL21(DE3) preincubated with integrase for 30 mins followed by LEDGF/p75 addition measured after 60 mins by AlphaScreen assay
Record form. Attribute: IC50. Fill in for each entry.

smilesRepr	IC50
CCCCNC(=O)c1ncccc1O	> 20 µM
O=C(NCc1ccc(F)cc1)c1ccc(O)cn1	> 20 µM
COc1cccnc1C(=O)NCc1ccc(F)cc1	> 20 µM
O=C(NCc1ccc(F)cc1)c1ccccn1	> 20 µM
O=C(NCc1cccs1)c1ncccc1O	7.5 µM
O=C(NCc1ccc([N+](=O)[O-])cc1)c1ncccc1O	4 µM

Batch of 3 molecules: report IC50 for each.
1. O=C(NCC1CCCCC1)c1ncccc1O
2. C=C(C)CN(Cc1ccc(F)cc1)C(=O)c1ncccc1O
3. CC(C)CCN(Cc1ccc(F)cc1)C(=O)c1ncccc1O

Result:
1. 19 µM
2. > 20 µM
3. > 20 µM

Origin of the recorded values: ChEMBL document CHEMBL3877295
